Test system: S. aureus Newman
Assay: Adhesion of S. aureus Newman to immobilized fibrinogen (crystal violet)
Assay type: cell-based, Staphylococcus aureus
Conditions: read-out: IC50, inhibition of adhesion to fibrinogen; S. aureus Newman stationary phase; fibrinogen 10 μg/mL
Protocol: FIG 1 Allantodapsone inhibits S. aureus Newman adhesion to fibrinogen. Dose response curves for S. aureus Newman (A), L. lactis ClfA (B), and L. lactis ClfB (C) adhesion to fibrinogen. Fibrinogen was used to coat plates at 4°C overnight at 10 μg/mL. […] The dye was dissolved in acetic acid and the absorbance measured at 570 nm. […] FIG 2 Allantodapsone inhibits S. aureus adhesion to fibrinogen. […] The dye was dissolved in acetic acid and the absorbance measured at 570 nm. […]
pIC50: −log10 of the molar value.

compound	pIC50
Nc1ccc(S(=O)(=O)c2ccc(NCN3C(=O)NC(=O)C(=O)C3=O)cc2)cc1 [Allantodapsone]	4.67

###

tested on: L. lactis ClfA; assay: Adhesion of L. lactis ClfA to immobilized fibrinogen; format: cell-based, Lactococcus lactis; settings: Lactococcus lactis, read-out: IC50, inhibition of adhesion to fibrinogen
measured-property: IC50 (µM)

compound-smiles	measured-property	recorded-number
Nc1ccc(S(=O)(=O)c2ccc(NCN3C(=O)NC(=O)C(=O)C3=O)cc2)cc1	IC50	3.8
